- measurement_target: USP7 (Homo sapiens, UniProt Q93009)
- Sequence (Q93009 whole entry): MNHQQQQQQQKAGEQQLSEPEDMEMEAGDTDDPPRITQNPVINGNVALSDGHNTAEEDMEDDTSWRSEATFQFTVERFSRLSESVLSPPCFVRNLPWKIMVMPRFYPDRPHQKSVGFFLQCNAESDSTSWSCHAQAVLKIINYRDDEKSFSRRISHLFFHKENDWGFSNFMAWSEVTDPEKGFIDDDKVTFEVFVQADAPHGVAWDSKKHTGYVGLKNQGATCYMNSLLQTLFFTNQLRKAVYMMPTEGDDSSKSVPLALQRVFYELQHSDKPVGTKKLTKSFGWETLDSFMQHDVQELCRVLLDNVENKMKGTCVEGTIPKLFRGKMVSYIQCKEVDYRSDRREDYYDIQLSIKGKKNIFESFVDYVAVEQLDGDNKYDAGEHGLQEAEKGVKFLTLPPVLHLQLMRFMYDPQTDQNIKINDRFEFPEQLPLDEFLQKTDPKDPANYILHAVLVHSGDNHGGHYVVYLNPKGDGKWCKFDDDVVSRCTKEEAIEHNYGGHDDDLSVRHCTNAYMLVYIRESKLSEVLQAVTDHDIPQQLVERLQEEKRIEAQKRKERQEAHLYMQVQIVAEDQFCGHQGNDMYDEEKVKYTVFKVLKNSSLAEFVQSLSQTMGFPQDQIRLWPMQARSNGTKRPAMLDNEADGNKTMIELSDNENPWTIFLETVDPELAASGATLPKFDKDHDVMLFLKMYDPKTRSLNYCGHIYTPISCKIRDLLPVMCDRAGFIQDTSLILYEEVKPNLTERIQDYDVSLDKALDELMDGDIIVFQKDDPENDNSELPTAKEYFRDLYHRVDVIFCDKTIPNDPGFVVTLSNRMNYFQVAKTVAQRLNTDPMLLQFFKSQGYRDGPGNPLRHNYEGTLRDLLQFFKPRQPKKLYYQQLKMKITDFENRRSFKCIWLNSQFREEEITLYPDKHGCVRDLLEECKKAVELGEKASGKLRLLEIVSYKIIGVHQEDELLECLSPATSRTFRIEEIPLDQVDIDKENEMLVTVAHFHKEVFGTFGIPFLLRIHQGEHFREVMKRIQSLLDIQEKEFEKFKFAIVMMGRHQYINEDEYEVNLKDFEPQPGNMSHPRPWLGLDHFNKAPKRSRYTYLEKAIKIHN
parameter: IC50

Below are worked cases with known answers.
{"molecule": "O=C1CCC(=O)N1Cc1cc2nccc(-c3cc(Cl)cc4c3N([C@@H]3CCNC3)CC3CC43)c2s1 (single isomer, unassigned) [Example 113b]", "measurement_target": "USP7 (Homo sapiens, UniProt Q93009)", "IC50": "0.01 to 0.1 µM"}
{"molecule": "O=C1C2CC2C(=O)N1Cc1cc2nccc(-c3cc(Cl)cc4c3N([C@@H]3CNC(CO)(CO)C3)CCO4)c2s1 (single isomer, unassigned) [Example 212b]", "measurement_target": "USP7 (Homo sapiens, UniProt Q93009)", "IC50": "0.01 to 0.1 µM"}
{"molecule": "Cc1cnn(Cc2cc3nccc(-c4cc(Cl)cc5c4N(C4CNC4)CCC5)c3s2)c(=O)c1", "measurement_target": "USP7 (Homo sapiens, UniProt Q93009)", "IC50": "0.01 to 0.1 µM"}

Please tell me: IC50 of O=C1CCC(=O)N1Cc1cc2nccc(-c3cc(Cl)cc4c3N(C3CNC5(CC(F)C5)C3)CCC4)c2s1 (single isomer, unassigned) [Example 177a] , system USP7 (Homo sapiens, UniProt Q93009)?;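 note: fluorescence intensity readout of USP7 enzymatic activity, reaction incubated 90 min at room temperature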
< 0.01 µM

Short answer please: IC50, USP7 (Homo sapiens, UniProt Q93009), entry C[C@H](c1cc2nccc(-c3cc(C#N)cc4c3N([C@H]3CCNC3)CCC4)c2s1)N1C(=O)CCC1=O (single isomer, unassigned) [Example 112a]
0.01 to 0.1 µM
